Entries and their thermal shift delta Tm values follow.
Tested on: LOC_OS01G48390-cb002;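 also: purified Escherichia coli-expressed rice kinase domain construct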
Assay: thermal shift delta Tm vs DMSO control; higher = stronger stabilization (binding)
Details: 12.5 µM; protein concentration 2 µM
Where a name gives a salt, the structure may show the parent alone.

| molecule | study_target | thermal shift delta Tm [°C] |
| --- | --- | --- |
| Oc1ccc(Nc2nc(-c3ccc(Cl)cc3)cs2)cc1 | LOC_OS01G48390-cb002 | 1.3 |
| COc1cc2c(cc1OC)[C@@H]1C(=O)c3ccc4c(c3O[C@@H]1CO2)C=CC(C)(C)O4 | LOC_OS01G48390-cb002 | 0.4 |
| COc1cc(F)c(F)c(Nc2ccc(I)cc2F)c1NS(=O)(=O)C1(C[C@H](O)CO)CC1 [Refametinib (RDEA119, Bay 86-9766)] | LOC_OS01G48390-cb002 | 0.23 |
| O=C(Nc1cc(C(F)(F)F)cc(C(F)(F)F)c1)c1cc(Cl)ccc1O | LOC_OS01G48390-cb002 | 1.1 |
| FC(F)(F)c1ccc(CNc2ccc(Cc3c[nH]c4ncc(Cl)cc34)cn2)cn1 | LOC_OS01G48390-cb002 | 6.28 |
| CCn1c(=O)c(-c2ccc(-c3cncs3)cc2Cl)cc2cnc(Nc3ccc(N4CCN(C)CC4)cc3)nc21 | LOC_OS01G48390-cb002 | -0.5 |
| CCN1CCN(Cc2ccc(-c3cc4c(N[C@H](C)c5ccccc5)ncnc4[nH]3)cc2)CC1 | LOC_OS01G48390-cb002 | 0.54 |
| COc1cc(Nc2ncc3c(n2)-c2ccc(Cl)cc2C(c2c(F)cccc2OC)=NC3)ccc1C(=O)O | LOC_OS01G48390-cb002 | -0.18 |
| O=C(Nc1c[nH]nc1-c1nc2ccc(CN3CCOCC3)cc2[nH]1)NC1CC1 | LOC_OS01G48390-cb002 | 2.89 |
| CCCCNc1ncc(C(=O)NCc2ccc(-n3ccnc3)cc2)c(NC2CCC(O)CC2)n1 (configuration not stated) | LOC_OS01G48390-cb002 | 2.96 |
| CN1CCN(c2ccc3nc(-c4c(N)c5c(F)cccc5[nH]c4=O)[nH]c3c2)CC1 [Dovitinib (TKI258) Lactate] | LOC_OS01G48390-cb002 | 3.22 |
| C[C@H]1CNCCCN1S(=O)(=O)c1cccc2cncc(F)c12 [Ripasudil (K-115) hydrochloride dihydrate] | LOC_OS01G48390-cb002 | 0.68 |
| N#CC1(c2ccc(NC(=O)c3cccnc3NCc3ccncc3)cc2)CCCC1 | LOC_OS01G48390-cb002 | 0.55 |
| O=C(NCc1ccccc1)c1csc(Nc2ccncn2)n1 | LOC_OS01G48390-cb002 | 0.4 |
| CCOc1cc(C(=O)N2CCC(N3CCN(C)CC3)CC2)ccc1Nc1ncc2c(n1)N(C1CCCC1)c1ccccc1C(=O)N2C | LOC_OS01G48390-cb002 | 0 |
| CN1CCN(Cc2ccc(-c3cnc4[nH]cc(-c5ccc6[nH]ccc6c5)c4c3)cc2)CC1 | LOC_OS01G48390-cb002 | 3.1 |
| CCCCOc1c(C(=O)c2c(F)cc(C)cc2F)c[nH]c2nncc1-2 | LOC_OS01G48390-cb002 | 0.94 |
| Cc1ccc(Nc2nccc(N(C)c3ccc4c(C)n(C)nc4c3)n2)cc1S(N)(=O)=O | LOC_OS01G48390-cb002 | 4.34 |
| O=c1[nH]nc(Sc2ncc([N+](=O)[O-])s2)n1-c1ccc2c(c1)OCCO2 | LOC_OS01G48390-cb002 | 2.84 |
| O=C(Nc1cccnc1)c1cc(-c2ccnc(F)c2)ccc1OCc1ccccc1 | LOC_OS01G48390-cb002 | 0.88 |
| COc1cc2c3cc1Oc1c(OC)c(OC)cc4c1[C@@H](Cc1ccc(O)c(c1)Oc1ccc(cc1)C[C@@H]3N(C)CC2)N(C)CC4 [Berbamine (dihydrochloride)] | LOC_OS01G48390-cb002 | 0.32 |
| Cc1nc(Nc2n[nH]c3c2CN(C(=O)N[C@H](CN(C)C)c2ccccc2)C3(C)C)c2sccc2n1 | LOC_OS01G48390-cb002 | 0.23 |

meta.source: the supplement of paper PMC9694430
